The following compounds are listed with their measured melting point values.

{"MOLECULE": "Cl.NCCc1nnc(-c2ccc(-c3ccc(Cl)cc3)cc2)[nH]1", "melting point": "247 to 249 °C"}
{"MOLECULE": "Cl.NCCc1nnc(-c2ccccc2OC(F)(F)F)[nH]1", "melting point": "208 to 211 °C"}
{"MOLECULE": "Cc1ccc(Oc2ccc(-c3nnc(CCN)[nH]3)cc2)cc1C.Cl", "melting point": "201 to 203 °C"}
{"MOLECULE": "Cc1ccc(Oc2ccc(-c3nnc(CCN)[nH]3)cc2)cc1.Cl", "melting point": "234 to 236 °C"}
{"MOLECULE": "COc1ccc(-c2ccc(-c3nnc(CCN)[nH]3)cc2)cc1.Cl", "melting point": "300 to 301 °C"}
{"MOLECULE": "Cl.NCCc1nnc(-c2cccc(Oc3ccccc3Cl)c2)[nH]1", "melting point": "202 to 210 °C"}
